Data credit: ChEMBL document CHEMBL4177525

- ASSAY SYSTEM: Amine oxidase [flavin-containing] B (Homo sapiens)
- Sequence (P27338 whole entry): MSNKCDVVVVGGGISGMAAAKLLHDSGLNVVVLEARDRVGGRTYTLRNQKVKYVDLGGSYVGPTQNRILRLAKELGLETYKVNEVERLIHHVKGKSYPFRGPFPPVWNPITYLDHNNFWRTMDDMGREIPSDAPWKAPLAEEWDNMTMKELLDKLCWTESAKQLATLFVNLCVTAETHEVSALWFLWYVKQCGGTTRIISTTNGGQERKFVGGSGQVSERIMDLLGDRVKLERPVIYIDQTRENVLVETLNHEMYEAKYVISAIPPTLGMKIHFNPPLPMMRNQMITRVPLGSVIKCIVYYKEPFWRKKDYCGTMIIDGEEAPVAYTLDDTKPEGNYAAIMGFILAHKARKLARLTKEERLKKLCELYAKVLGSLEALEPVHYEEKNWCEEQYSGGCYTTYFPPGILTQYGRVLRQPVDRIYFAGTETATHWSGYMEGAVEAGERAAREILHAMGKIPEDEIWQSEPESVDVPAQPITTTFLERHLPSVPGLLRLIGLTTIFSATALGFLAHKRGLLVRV
- PROTOCOL: Inhibition of human membrane bound MAO-B expressed in insect cell membranes assessed as reduction in conversion of kynuramine to 4-hydroxyquinoline by spectrophotometric assay
- CONDITION: read-out: IC50
EXPERIMENTAL ENDPOINT: log10 of IC50 (log10 of the value in µM)
In plain terms, each number is the log10 of measured IC50 in µM.

Given the molecule "Oc1cc(Cl)ccc1NC(=S)Nc1ccc2[nH]ccc2c1" , write its reported log10 of IC50.
-0.52

Answer with reported log10 of IC50 of "COC(=O)c1cc(NC(=S)Nc2ccc3[nH]ccc3c2)ccc1O"
1.49

Answer with the recorded log10 of IC50 of "S=C(Nc1ccc2[nH]ccc2c1)Nc1cccc2cnccc12" only.
0.60

Give recorded log10 of IC50. "Oc1c(Cl)cc(NC(=S)Nc2ccc3[nH]ccc3c2)cc1Cl"
1.23

# return recorded log10 of IC50 for input "S=C(Nc1ccc(Br)cc1)Nc1ccc2[nH]ccc2c1"
1.76

Provide one value: measured log10 of IC50 of "S=C(Nc1ccccc1)Nc1ccc2[nH]ccc2c1"
1.78

---

- ASSAY SYSTEM: peroxidase (horseradish peroxidase) (Raphanus sativus, UniProt K7N5L9)
- Sequence (K7N5L9 whole entry): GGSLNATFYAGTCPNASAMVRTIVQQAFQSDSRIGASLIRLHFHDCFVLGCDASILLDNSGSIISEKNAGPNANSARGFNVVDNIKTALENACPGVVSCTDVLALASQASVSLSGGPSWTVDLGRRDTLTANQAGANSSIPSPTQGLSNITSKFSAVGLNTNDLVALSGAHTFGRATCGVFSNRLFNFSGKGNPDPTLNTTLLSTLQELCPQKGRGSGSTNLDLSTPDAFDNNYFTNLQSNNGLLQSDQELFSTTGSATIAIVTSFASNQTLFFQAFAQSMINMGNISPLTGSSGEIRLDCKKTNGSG
- PROTOCOL: Inhibition of horse radish peroxidase assessed as residual activity at 5 uM by amplex red dye based fluorescence assay
- CONDITION: horseradish peroxidase (isolated enzyme), probe Amplex Red, read-out: Activity
EXPERIMENTAL ENDPOINT: activity at 5 µM (%)
Number only, in %; omit the unit.

Specify activity at 5 µM for "Oc1ccc(CNC(=S)Nc2ccc3[nH]ccc3c2)cc1O" and stop.
38.3

Consider the molecule "Oc1ccc(NC(=S)Nc2ccc3[nH]ccc3c2)cc1" and give its recorded activity at 5 µM.
41.5

Report activity at 5 µM for "Oc1cc(Cl)ccc1NC(=S)Nc1ccc2[nH]ccc2c1"
58.9

Fill in activity at 5 µM for record "COC(=O)c1cc(NC(=S)Nc2ccc3[nH]ccc3c2)ccc1O"
61.2

Given "Oc1c(Cl)cc(NC(=S)Nc2ccc3[nH]ccc3c2)cc1Cl" , respond with its activity at 5 µM.
48.6

For the molecule "S=C(Nc1ccc(Oc2ccccc2)cc1)Nc1ccc2[nH]ccc2c1" , give its measured activity at 5 µM value.
73.1

Using known records, supply activity at 5 µM for "Oc1cccc(NC(=S)Nc2ccc3[nH]ccc3c2)c1"
81.4

Check the records and state activity at 5 µM for "COc1ccc(NC(=S)Nc2ccc3[nH]ccc3c2)cc1"
67.6

Specify measured activity at 5 µM for "CC(=O)c1ccc(NC(=S)Nc2ccc3[nH]ccc3c2)cc1" .
66.3

---

- PROTOCOL: Cytotoxicity against CHOK1 cells assessed as reduction in cell viability after 24 hrs by MTT assay
- Format: cell-based, Cricetulus griseus
- CONDITION: chinese hamster, CHO-K1 cells; read-out: LC50
Assign log10(CC50 at 24 h) to each entry below.
Heads up, the numbers here are log10 of CC50 at 24 h in µM units.

Item "COc1ccc2nc(NC(=O)Nc3ccccc3)sc2c1" : provide log10(CC50 at 24 h)
1.49

Tell me log10(CC50 at 24 h) reported for "OCc1ccc(NC(=S)Nc2ccc3[nH]ccc3c2)cc1"
3.03

Name the recorded log10(CC50 at 24 h) of the compound listed here: "CC(=O)c1ccc(NC(=S)Nc2ccc3[nH]ccc3c2)cc1"
2.19

Please look at this compound and report its log10(CC50 at 24 h): "S=C(Nc1ccc(Oc2ccccc2)cc1)Nc1ccc2[nH]ccc2c1"
1.56

Recall and state the measured log10(CC50 at 24 h) for "Cc1ccc(NC(=S)Nc2ccc3[nH]ccc3c2)c(O)c1" .
2.57

Look up and state reported log10(CC50 at 24 h) for "CCOC(=O)c1ccc(NC(=S)Nc2ccc3[nH]ccc3c2)cc1"
2.09

Please look at this compound and report its log10(CC50 at 24 h): "CC(=O)Nc1ccc(NC(=S)Nc2ccc3[nH]ccc3c2)cc1"
3.02

Tell me measured log10(CC50 at 24 h) for "Oc1ccc(CNC(=S)Nc2ccc3[nH]ccc3c2)cc1O" please.
2.67

Tell me measured log10(CC50 at 24 h) for "S=C(Nc1ccccc1)Nc1ccc2[nH]ccc2c1" please.
2.53

Indicate its recorded log10(CC50 at 24 h); the compound in question is "COc1ccc(CNC(=S)Nc2ccc3[nH]ccc3c2)cc1"
2.37

Quick one: give measured log10(CC50 at 24 h) for "S=C(Nc1ccc(Br)cc1)Nc1ccc2[nH]ccc2c1"
2.34

Retrieve log10(CC50 at 24 h) measured for "Oc1ccc(NC(=S)Nc2ccc3[nH]ccc3c2)cc1" and print it.
2.93

Identify log10(CC50 at 24 h) associated with the compound "Oc1ccc(NC(=S)Nc2ccc3[nH]ccc3c2)cc1Cl"
2.65

For the compound "Oc1ccccc1NC(=S)Nc1ccc2[nH]ccc2c1" , report log10(CC50 at 24 h).
2.71

Determine from records and report log10(CC50 at 24 h) for "O=C(c1ccccc1)c1ccc(NC(=S)Nc2ccc3[nH]ccc3c2)cc1"
1.30

Determine from records and report log10(CC50 at 24 h) for "Oc1c(Cl)cc(NC(=S)Nc2ccc3[nH]ccc3c2)cc1Cl"
2.72

Tell me log10(CC50 at 24 h) reported for "Oc1cc(Cl)ccc1NC(=S)Nc1ccc2[nH]ccc2c1"
2.40

Given the compound "Oc1cccc(NC(=S)Nc2ccc3[nH]ccc3c2)c1" , write its reported log10(CC50 at 24 h).
2.99

Find the measured log10(CC50 at 24 h) of "COc1ccc(NC(=S)Nc2ccc3[nH]ccc3c2)cc1" and report it.
2.68

Read off the recorded log10(CC50 at 24 h) for "COC(=O)c1cc(NC(=S)Nc2ccc3[nH]ccc3c2)ccc1O"
2.63

Give log10(CC50 at 24 h) for "COc1ccc(NC(=S)Nc2ccc3[nH]ccc3c2)cc1OC"
2.90
